B1: Double-stranded RNA-binding protein Staufen homolog 1, residues 183 to 249; numbered along this chain, O95793 (parent)
chain: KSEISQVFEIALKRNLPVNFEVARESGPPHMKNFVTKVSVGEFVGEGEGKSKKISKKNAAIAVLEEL

Variants of: B1
experimental-protocol: abundance fitness (aPCA) (normalised: wild type 0, dead -1); higher = more abundant; growth selection in yeast, the domain comes from the species named
test-conditions: Homo sapiens
measurement-type: abundance fitness

sequence-change	measurement-type	endpoint-result
L12G	abundance fitness	-0.035
H30F	abundance fitness	-0.278
K13F	abundance fitness	-0.436
P28V	abundance fitness	-0.278
K1T	abundance fitness	-0.166
